- Test system: EKVX NSCLC
- assayOverview: NCI tumour cell line growth inhibition, 48 h
In this section, each of the compounds is paired with its reported TGI.
reportedMetric: TGI

INSERT INTO assay_data (compound, assayedsystem, result) VALUES
  ('O=C(CCC(=O)Nc1ccccc1C(F)(F)F)N/N=C1\C(=N\NC(=O)CCC(=O)Nc2ccccc2C(F)(F)F)C(c2ccc3c(c2)OCO3)Oc2ccccc21 (configuration not stated)', 'EKVX NSCLC', '> 100 µM'),
  ('c1ccc2c(c1)nnn2CNc1ccc(N2CCCCC2)cc1', 'EKVX NSCLC', '> 100 µM'),
  ('CC(=O)O[C@@H]1[C@H](OC2CCCCC2(c2ccccc2)c2ccccc2)O[N+]([O-])=CC12CCCCC2 (some centres not stated)', 'EKVX NSCLC', '33.7 µM'),
  ('CC1=C(C(=O)NNC(=O)Cc2ccccc2)CC(C(=O)NNC(=O)Cc2ccccc2)=C(C)N1', 'EKVX NSCLC', '> 100 µM'),
  ('C[C@@H](C1CC[C@H]2[C@@H]3[C@@H]4O[C@@H]4[C@@]4(O)CC=CC(=O)[C@]4(C)[C@H]3C[C@H](O)[C@]12C)[C@H]1C[C@]2(C)O[C@]2(C)C(=O)O1 (some centres not stated)', 'EKVX NSCLC', '> 100 µM'),
  ('CN(C(=O)[C@H](NC(=O)OCc1ccccc1)c1ccccc1)C1CCCCC1N1CCCC1 (some centres not stated)', 'EKVX NSCLC', '> 100 µM'),
  ('CON(C)c1nc(N)c(C#N)c(C#N)c1C#N', 'EKVX NSCLC', '> 10 µM'),
  ('Cc1ccc(Nc2c3c(c(C#N)c4nc5ccccc5n24)CCCC3)cc1', 'EKVX NSCLC', '> 100 µM'),
  ('Cc1ccc2nc(NC(=O)C(=O)C(C(=O)c3ccc4ccccc4c3)C3OC(=O)c4ccccc43)sc2c1 (configuration not stated)', 'EKVX NSCLC', '44.5 µM'),
  ('CCO/C(O)=C(/C(=N)N1CCOCC1)C(=O)Nc1cccc(C(F)(F)F)c1', 'EKVX NSCLC', '> 100 µM'),
  ('C=CCn1c(-c2cc(C(C)(C)C)c(O)c(C(C)(C)C)c2)cs/c1=N\C(P(=O)(O)O)P(=O)(O)O', 'EKVX NSCLC', '> 100 µM'),
  ('C[C@@H]1CC[C@H]2[C@@H](C)C(O)O[C@@H]3O[C@]4(C)CC[C@@H]1[C@]32OO4 (some centres not stated)', 'EKVX NSCLC', '17.2 µM');
